Origin of values: patent US9873690B2

- test.target: hTDO2 (Homo sapiens, UniProt P48775)
- Construct: endogenous in cells
- Sequence (P48775 whole entry): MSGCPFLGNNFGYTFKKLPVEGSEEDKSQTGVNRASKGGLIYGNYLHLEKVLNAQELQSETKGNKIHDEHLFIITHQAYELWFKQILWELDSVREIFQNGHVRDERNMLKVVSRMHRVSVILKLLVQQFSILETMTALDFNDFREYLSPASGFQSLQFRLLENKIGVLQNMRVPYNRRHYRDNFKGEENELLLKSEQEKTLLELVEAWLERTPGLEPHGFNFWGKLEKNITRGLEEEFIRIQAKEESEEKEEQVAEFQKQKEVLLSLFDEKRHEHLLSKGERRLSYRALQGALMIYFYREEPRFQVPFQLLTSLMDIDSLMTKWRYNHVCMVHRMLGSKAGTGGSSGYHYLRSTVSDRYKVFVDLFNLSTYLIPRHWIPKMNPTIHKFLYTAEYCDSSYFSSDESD
- assay.info: Cellular assay for TDO2 activity determination in A172 cells
- experimental.setup: human glioblastoma A172 cells naturally expressing hTDO2; overnight incubation; kynurenine by absorbance at 480 nm
Output Condition met for records whose IC50 is lower than 500 nM, Condition not met for records at or above 500 nM.

QUERY: # strict comparison: is reported IC50 < 500 nM? input = O=S1(=O)c2ccc(-c3c[nH]c4cc(F)ccc34)cc2CN1C1CNC1 [Example 40]
RESULT: Condition not met

QUERY: Same read-out for CC1c2cc(-c3c[nH]c4cc(F)ccc34)ccc2S(=O)(=O)N1CCC(N)=O (single isomer, unassigned; (-)) [Example 48] ?
RESULT: Condition met

QUERY: Same read-out for CC1c2cc(-c3c[nH]c4cc(F)ccc34)ccc2S(=O)(=O)N1C[C@]1(C)CCC(=O)N1 (single isomer, unassigned; (+)) [Example 81] ?
RESULT: Condition met

QUERY: Same read-out for NCCN1Cc2cc(-c3c[nH]c4cc(F)ccc34)ccc2S1(=O)=O [Example 31] ?
RESULT: Condition met

QUERY: Same read-out for CC(=O)NCC1NS(=O)(=O)c2ccc(-c3c[nH]c4cc(F)ccc34)cc21 (single isomer, unassigned; (-)) [Example 23] ?
RESULT: Condition not met

QUERY: Same read-out for CS(=O)(=O)NCC1NS(=O)(=O)c2ccc(-c3c[nH]c4cc(F)ccc34)cc21 (single isomer, unassigned; (+)) [Example 140] ?
RESULT: Condition met

QUERY: Same read-out for NC(=O)C1NS(=O)(=O)c2ccc(-c3c[nH]c4cc(F)ccc34)cc21 (single isomer, unassigned; (+)) [Example 16] ?
RESULT: Condition not met

* * *

- test.target: hTDO2 (Homo sapiens, UniProt P48775)
- Construct: endogenous in cells
- assay.info: Cellular assay for TDO2 activity determination in A172 cells
- experimental.setup: human glioblastoma A172 cells naturally expressing hTDO2; overnight incubation; kynurenine by absorbance at 480 nm
quantity.measured: pIC50
The read-out pIC50 is expressed as -log10 of concentration in moles per litre.

QUERY: Fill in the recorded pIC50 for this molecule, with hTDO2 (Homo sapiens, UniProt P48775) as test system: O=S1(=O)NC(CO)c2cc(-c3c[nH]c4cc(F)ccc34)ccc21 (single isomer, unassigned; (-)) [Example 12]
RESULT: 7.13

QUERY: Same read-out for CC1c2cc(-c3c[nH]c4cc(F)ccc34)ccc2S(=O)(=O)N1C1CNC(=O)C1 (single isomer, unassigned; (+)) [Example 123] ?
RESULT: 6.30

QUERY: Same read-out for CC1c2cc(-c3c[nH]c4cc(F)ccc34)ccc2S(=O)(=O)N1CCO (single isomer, unassigned; (-)) [Example 64] ?
RESULT: 6.49

QUERY: Same read-out for CC1c2cc(-c3c[nH]c4cc(F)ccc34)ccc2S(=O)(=O)N1CC1CCNCC1 (single isomer, unassigned; (+)) [Example 78] ?
RESULT: 6.76

QUERY: Same read-out for CNCC1NS(=O)(=O)c2ccc(-c3c[nH]c4cc(F)ccc34)cc21 (single isomer, unassigned) [Example 137] ?
RESULT: 7.18

QUERY: Same read-out for CNC(=O)C(C)N1C(C)c2cc(-c3c[nH]c4cc(F)ccc34)ccc2S1(=O)=O (single isomer, unassigned; (-)) [Example 148] ?
RESULT: 6.58

QUERY: Same read-out for C[S+]([O-])CCN1Cc2cc(-c3c[nH]c4cc(F)ccc34)ccc2S1(=O)=O (single isomer, unassigned; (+)) ?
RESULT: 6.85

QUERY: Same read-out for CC1c2cc(-c3c[nH]c4cc(F)ccc34)ccc2S(=O)(=O)N1C1CCNC(=O)C1 (single isomer, unassigned; (+)) [Example 121] ?
RESULT: 6.46

QUERY: Same read-out for CC1c2cc(-c3c[nH]c4cc(F)ccc34)ccc2S(=O)(=O)N1C[C@H](O)CO (single isomer, unassigned; (+)) [Example 96] ?
RESULT: 7.52

QUERY: Same read-out for CC1c2cc(-c3c[nH]c4cc(F)ccc34)ccc2S(=O)(=O)N1Cc1ncn(C)n1 (single isomer, unassigned; (-)) [Example 85] ?
RESULT: 7.24

QUERY: Same read-out for CC1c2cc(-c3c[nH]c4cc(F)ccc34)ccc2S(=O)(=O)N1CC[S+](C)[O-] (single isomer, unassigned; (+)) [Example 58] ?
RESULT: 6.57

QUERY: Same read-out for CC1c2cc(-c3c[nH]c4cc(F)ccc34)ccc2S(=O)(=O)N1C1CNC(=O)C1 (single isomer, unassigned; (+)) [Example 126] ?
RESULT: 7.11

QUERY: Same read-out for CN(C)CC1NS(=O)(=O)c2ccc(-c3c[nH]c4cc(F)ccc34)cc21 (single isomer, unassigned; (-)) [Example 25] ?
RESULT: 5.30

* * *

Consider the following molecules; for each one, report its IC50.
- test.target: hTDO2 (Homo sapiens, UniProt P48775)
- Construct: endogenous in cells
- assay.info: Cellular assay for TDO2 activity determination in A172 cells
- experimental.setup: human glioblastoma A172 cells naturally expressing hTDO2; overnight incubation; kynurenine by absorbance at 480 nm
Please give the number followed by its unit.

QUERY: Give its IC50 value. Item: CC(=O)NCC1NS(=O)(=O)c2ccc(-c3c[nH]c4cc(F)ccc34)cc21 (single isomer, unassigned; (+)) [Example 24]
RESULT: 255 nM

QUERY: Same read-out for CC1c2cc(-c3c[nH]c4cc(F)ccc34)ccc2S(=O)(=O)N1C[C@@H](O)CO (single isomer, unassigned; (+)) [Example 94] ?
RESULT: 39 nM

QUERY: Same read-out for O=S1(=O)c2ccc(-c3c[nH]c4cc(F)ccc34)cc2C(CO)N1CCO (single isomer, unassigned; (+)) [Example 131] ?
RESULT: 182 nM

QUERY: Same read-out for CNC(=O)C(N)CN1C(C)c2cc(-c3c[nH]c4cc(F)ccc34)ccc2S1(=O)=O (single isomer, unassigned; (+)) [Example 102] ?
RESULT: 114 nM

QUERY: Same read-out for Cn1cnc(CN2C(CO)c3cc(-c4c[nH]c5cc(F)ccc45)ccc3S2(=O)=O)n1 (single isomer, unassigned; (-)) [Example 129] ?
RESULT: 39 nM

QUERY: Same read-out for CC1c2cc(-c3c[nH]c4cc(F)ccc34)ccc2S(=O)(=O)N1C1CNC(=O)C1 (single isomer, unassigned; (-)) [Example 124] ?
RESULT: 68 nM

* * *

- test.target: hTDO2 (Homo sapiens, UniProt P48775)
- Construct: endogenous in cells
- assay.info: Cellular assay for TDO2 activity determination in A172 cells
- experimental.setup: human glioblastoma A172 cells naturally expressing hTDO2; overnight incubation; kynurenine by absorbance at 480 nm
quantity.measured: IC50 (µM)
Output spec: scalar in µM, unitless text.

QUERY: Give its IC50 value. Item: CNC(=O)C(CN1C(C)c2cc(-c3c[nH]c4cc(F)ccc34)ccc2S1(=O)=O)OC (single isomer, unassigned; (-)) [Example 108]
RESULT: 0.093

QUERY: Same read-out for CC1c2cc(-c3c[nH]c4cc(F)ccc34)ccc2S(=O)(=O)N1CC1CCN(C)CC1 (single isomer, unassigned; (-)) [Example 79] ?
RESULT: 0.258

QUERY: Same read-out for CC1c2cc(-c3c[nH]c4cc(F)ccc34)ccc2S(=O)(=O)N1CCS(C)(=O)=O (single isomer, unassigned; (+)) [Example 53] ?
RESULT: 0.07

QUERY: Same read-out for CNC(=O)C(C)N1C(C)c2cc(-c3c[nH]c4cc(F)ccc34)ccc2S1(=O)=O (single isomer, unassigned; (+)) [Example 146] ?
RESULT: 0.054

QUERY: Same read-out for CC(=O)N1CCC(N2C(C)c3cc(-c4c[nH]c5cc(F)ccc45)ccc3S2(=O)=O)C1 (single isomer, unassigned; (+)) [Example 73] ?
RESULT: 0.246

QUERY: Same read-out for NC(=O)C1NS(=O)(=O)c2ccc(-c3c[nH]c4cc(F)ccc34)cc21 (single isomer, unassigned; (-)) [Example 15] ?
RESULT: 2.07

* * *

- test.target: hTDO2 (Homo sapiens)
- Construct: endogenous in cells
- assay.info: Cellular assay for TDO2 activity determination in A172 cells
- experimental.setup: human glioblastoma A172 cells naturally expressing hTDO2; overnight incubation; kynurenine by absorbance at 480 nm
quantity.measured: pIC50
The read-out pIC50 is expressed as -log10 of concentration in moles per litre.

QUERY: Give its pIC50 value. Item: CNC(=O)CN1C(CO)c2cc(-c3c[nH]c4cc(F)ccc34)ccc2S1(=O)=O (single isomer, unassigned; (+)) [Example 128]
RESULT: 7.10

QUERY: Same read-out for O=S1(=O)NC(C2CC2)c2cc(-c3c[nH]c4cc(F)ccc34)ccc21 (single isomer, unassigned; (+)) [Example 10] ?
RESULT: 6.62

QUERY: Same read-out for CC1=NS(=O)(=O)c2ccc(-c3c[nH]c4cc(F)ccc34)cc21 ?
RESULT: 6.74

QUERY: Same read-out for CN(C)CC1NS(=O)(=O)c2ccc(-c3c[nH]c4cc(F)ccc34)cc21 (single isomer, unassigned; (+)) [Example 26] ?
RESULT: 6.36
